# EXPERIMENTAL SYSTEM: glycine-binding site of the NMDA receptor channel (Rattus norvegicus, UniProt P35439)
# PROCEDURE DETAILS: Receptor binding study, displacement of (3H)-MDL 105.519 in rat brain membrane homogenates
# PROTOCOL CONDITIONS: rat cortex and hippocampus membrane homogenate; (3H)-MDL 105.519 radioligand; Ki from IC50 by Cheng-Prusoff
pKi: −log10 of the molar value.
PARAMETER: pKi

Illustrative cases are given below, each with its answer.
>  <MOLECULE>
O=NC1=C(Nc2ccccc2)C(=Cc2ccccc2)NC1=O [Example 4]

>  <EXPERIMENTAL SYSTEM>
glycine-binding site of the NMDA receptor channel (Rattus norvegicus, UniProt P35439)

>  <pKi>
4.14

$$$$
>  <MOLECULE>
O=C1NC(=Cc2ccccc2)C(NCc2ccccc2)=C1[N+](=O)[O-] [Example 9]

>  <EXPERIMENTAL SYSTEM>
glycine-binding site of the NMDA receptor channel (Rattus norvegicus, UniProt P35439)

>  <pKi>
5.30

$$$$
>  <MOLECULE>
NC1=C([N+](=O)[O-])C(=O)NC1=Cc1ccccc1 [Example 11]

>  <EXPERIMENTAL SYSTEM>
glycine-binding site of the NMDA receptor channel (Rattus norvegicus, UniProt P35439)

>  <pKi>
5.22

$$$$

[A] CNC1=C(N=O)C(=O)NC1=Cc1ccccc1 [Example 5]
[B] O=C1NC(=Cc2ccccc2)C(Nc2ccccc2)=C1[N+](=O)[O-] [Example 8]
Query: Between A and B , whose measured pKi reads higher? Provide the label of your selected option as the answer.
Result: B

###

# EXPERIMENTAL SYSTEM: glycine-binding site of the NMDA receptor channel (Rattus norvegicus)
# PROCEDURE DETAILS: Receptor binding study, displacement of (3H)-MDL 105.519 in rat brain membrane homogenates
# PROTOCOL CONDITIONS: rat cortex and hippocampus membrane homogenate; (3H)-MDL 105.519 radioligand; Ki from IC50 by Cheng-Prusoff
PARAMETER: Ki (µM)

[a] O=NC1=C(NCc2ccccc2)C(=Cc2ccccc2)NC1=O
[b] CNC1=C([N+](=O)[O-])C(=O)NC1=Cc1ccccc1
Query: Between a and b , whose measured Ki reads higher? Provide the label of your selected option as the answer.
Result: a
(a: 68 µM, b: 3 µM)
